# method: Metabolic stability in ddY mouse blood at 7.4 MBq, iv after 30 mins by radio-TLC analysis
# Assay type: ADME, organism-based
# particulars: 40 MBq, in the assay text read “40 MBq” for “7.4 MBq”, read-out: Activity
measured-endpoint: remaining at 0.5 h (%)
Quick note: give the figure in %, leave out the unit.

**Q:** Note down remaining at 0.5 h recorded for CCc1cc(Cl)cc2[nH]c(=O)c(-c3cccc(N[11CH3])c3)c(O)c12
**A:** 93

----------
# method: n-Octanol-sodium phosphate buffer partition coefficient, log D at pH 7.4 after 15 mins by shake-flask method
# Assay type: physicochemical
Recorded measurements of logD at 0.25 h, one per entry
Output spec: single numeric token, no unit.

> print(dat)
                                 smiles.str  value.reported
1  COc1ccc(Cc2cccc(-c3c(O)c4ccc(Cl)cc4[nH]c3=O)c2)cc1            3.47

// below: logD at 0.25 h requested for another compound
**Q:** Indicate its recorded logD at 0.25 h; the compound in question is CNc1ccc(Cc2cccc(-c3c(O)c4ccc(Cl)cc4[nH]c3=O)c2)cc1
**A:** 3

----------
# method: Biodistribution in ddY mouse cerebrum assessed per gram of tissue at 7.4 MBq, iv after 30 mins by gamma counting
# Format: ADME, organism-based
# particulars: in vivo, 0.5 h
measured-endpoint: Drug uptake

Consider the worked cases shown below.
> print(dat)
                                 smiles.str  measured.endpoint  value.reported
1  CCc1cc(Cl)cc2[nH]c(=O)c(-c3cccc(O[11CH3])c3)c(O)c12        Drug uptake      0.32 %ID/g
2  [11CH3]Oc1ccc(Cc2cccc(-c3c(O)c4ccc(Cl)cc4[nH]c3=O)c2)cc1        Drug uptake       0.2 %ID/g
3  [11CH3]Nc1ccc(Cc2cccc(-c3c(O)c4ccc(Cl)cc4[nH]c3=O)c2)cc1        Drug uptake      0.17 %ID/g

Then there is this molecule:
**Q:** Check the records and state Drug uptake for CCc1cc(Cl)cc2[nH]c(=O)c(-c3cccc(N[11CH3])c3)c(O)c12
**A:** 0.38 %ID/g

----------
# Test system: Blood
# method: Biodistribution in ddY mouse blood assessed per gram of tissue at 7.4 MBq, iv after 30 mins by gamma counting
# Format: ADME, organism-based
# particulars: in vivo, 0.5 h
measured-endpoint: Drug uptake (%ID/g)
Give your result in %ID/g as a bare value.

Examples with answers:
> print(dat)
                                 smiles.str  unit.tag  value.reported
1  [11CH3]Oc1ccc(Cc2cccc(-c3c(O)c4ccc(Cl)cc4[nH]c3=O)c2)cc1     %ID/g            3.46
2  CCc1cc(Cl)cc2[nH]c(=O)c(-c3cccc(O[11CH3])c3)c(O)c12     %ID/g           10.66

**Q:** Name the recorded Drug uptake of the molecule listed here: [11CH3]Nc1ccc(Cc2cccc(-c3c(O)c4ccc(Cl)cc4[nH]c3=O)c2)cc1
**A:** 3.93

**Q:** Query Drug uptake for CCc1cc(Cl)cc2[nH]c(=O)c(-c3cccc(N[11CH3])c3)c(O)c12
**A:** 9.08

----------
# method: Ratio of drug level in cerebrum to blood of ddY mouse at 7.4 MBq, iv after 30 mins
# Format: ADME, organism-based
Overview of reported Kp at 0.5 h across a group of compounds:
Lab note: record the figure alone, no unit after it.

Below, 3 compounds whose answers are already recorded.
> print(dat)
                                 smiles.str  value.reported
1  CCc1cc(Cl)cc2[nH]c(=O)c(-c3cccc(O[11CH3])c3)c(O)c12            0.03
2  [11CH3]Oc1ccc(Cc2cccc(-c3c(O)c4ccc(Cl)cc4[nH]c3=O)c2)cc1           0.051
3  [11CH3]Nc1ccc(Cc2cccc(-c3c(O)c4ccc(Cl)cc4[nH]c3=O)c2)cc1           0.043

Next compound, please.
**Q:** Tell us which Kp at 0.5 h value is on record for CCc1cc(Cl)cc2[nH]c(=O)c(-c3cccc(N[11CH3])c3)c(O)c12
**A:** 0.042

----------
Catalogue of Kp at 0.5 h readings, one per entry.
# method: Ratio of drug level in cerebellum to blood of ddY mouse at 7.4 MBq, iv after 30 mins
# Format: ADME, organism-based
API doc: respond with a numeric literal and nothing else, no unit.

A selection of reference data follows.
> print(dat)
                                 smiles.str  value.reported
1  CCc1cc(Cl)cc2[nH]c(=O)c(-c3cccc(O[11CH3])c3)c(O)c12           0.042
2  [11CH3]Oc1ccc(Cc2cccc(-c3c(O)c4ccc(Cl)cc4[nH]c3=O)c2)cc1           0.068
3  [11CH3]Nc1ccc(Cc2cccc(-c3c(O)c4ccc(Cl)cc4[nH]c3=O)c2)cc1           0.058

# evaluate next
**Q:** Given the compound CCc1cc(Cl)cc2[nH]c(=O)c(-c3cccc(N[11CH3])c3)c(O)c12 , write its reported Kp at 0.5 h.
**A:** 0.058

----------
# method: Ratio of drug level in cerebrum to blood of mouse at 7.4 MBq, iv after 1 min
# Assay type: ADME, organism-based
measured-endpoint: Kp at 1 min

**Q:** Respond only with Kp at 1 min recorded for [11CH3]Oc1ccc(Cc2cccc(-c3c(O)c4ccc(Cl)cc4[nH]c3=O)c2)cc1
**A:** 0.038

----------
# method: Plasma protein binding in rat at 0.67 to 0.89 […] after 30 mins by ultrafiltration
# Format: ADME, cell-free
# particulars: read-out: PPB (converted)
fraction unbound at 0.5 h reference
Answer as a number with no unit attached.

> print(dat)
                                 smiles.str  value.reported
1  CCc1cc(Cl)cc2[nH]c(=O)c(-c3cccc(N[11CH3])c3)c(O)c12            0.29
2  COc1ccc(Cc2cccc(-c3c(O)c4ccc(Cl)cc4[nH]c3=O)c2)cc1            0.06

Pending compound:
**Q:** Quickly give me recorded fraction unbound at 0.5 h for CCc1cc(Cl)cc2[nH]c(=O)c(-c3cccc(OC)c3)c(O)c12
**A:** 0.06

----------
# method: Ratio of drug level in cerebrum to blood of ddY mouse at 7.4 MBq, iv after 1 min
# Format: ADME, organism-based
Below: a set of entries, each annotated with reported Kp at 1 min.
Number only, please.

> print(dat)
                                 smiles.str  measured.endpoint  value.reported
1  CCc1cc(Cl)cc2[nH]c(=O)c(-c3cccc(N[11CH3])c3)c(O)c12        Kp at 1 min           0.022

**Q:** Fill in reported Kp at 1 min for this entry: CCc1cc(Cl)cc2[nH]c(=O)c(-c3cccc(O[11CH3])c3)c(O)c12
**A:** 0.018

**Q:** Entry [11CH3]Nc1ccc(Cc2cccc(-c3c(O)c4ccc(Cl)cc4[nH]c3=O)c2)cc1 needs its Kp at 1 min filled in; supply it.
**A:** 0.031

----------
# target-or-system: Glutamate NMDA receptor
# method: Binding affinity to glycine binding site of NMDA receptor in rat brain
# Format: tissue-based
measured-endpoint: Ki
Provide a numeric answer, followed by its unit.

Recorded Ki, per entry:
> print(dat)
                                 smiles.str  value.reported
1  CCc1cc(Cl)cc2[nH]c(=O)c(-c3cccc(OC)c3)c(O)c12          7.2 nM
2  COc1cccc(-c2c(O)c3c(I)cc(Cl)cc3[nH]c2=O)c1         10.3 nM

# input for lookup
**Q:** Supply reported Ki belonging to this compound: COc1cccc(-c2c(O)nc3cc(Cl)ccc3c2O)c1
**A:** 167 nM

----------
# method: Ratio of drug level in cerebellum to blood of ddY mouse at 7.4 MBq, iv after 1 min
# Type: ADME, organism-based
In this section, each of the compounds is paired with its reported Kp at 1 min.
Give the figure only, with no unit attached.

> print(dat)
                                 smiles.str  value.reported
1  CCc1cc(Cl)cc2[nH]c(=O)c(-c3cccc(N[11CH3])c3)c(O)c12           0.042
2  CCc1cc(Cl)cc2[nH]c(=O)c(-c3cccc(O[11CH3])c3)c(O)c12           0.026

Next compound, please.
**Q:** Give the reported Kp at 1 min for this compound. [11CH3]Nc1ccc(Cc2cccc(-c3c(O)c4ccc(Cl)cc4[nH]c3=O)c2)cc1
**A:** 0.037

Where do the numbers come from? From ChEMBL document CHEMBL1152423.
